Subject Of Test: ΔF508-CFTR (Homo sapiens, UniProt P13569, DEL508-508)
Construct: host or cells: CFBE41o-, doxycycline-inducible
Sequence (P13569 with tags, fused parts or gaps DEL508-508): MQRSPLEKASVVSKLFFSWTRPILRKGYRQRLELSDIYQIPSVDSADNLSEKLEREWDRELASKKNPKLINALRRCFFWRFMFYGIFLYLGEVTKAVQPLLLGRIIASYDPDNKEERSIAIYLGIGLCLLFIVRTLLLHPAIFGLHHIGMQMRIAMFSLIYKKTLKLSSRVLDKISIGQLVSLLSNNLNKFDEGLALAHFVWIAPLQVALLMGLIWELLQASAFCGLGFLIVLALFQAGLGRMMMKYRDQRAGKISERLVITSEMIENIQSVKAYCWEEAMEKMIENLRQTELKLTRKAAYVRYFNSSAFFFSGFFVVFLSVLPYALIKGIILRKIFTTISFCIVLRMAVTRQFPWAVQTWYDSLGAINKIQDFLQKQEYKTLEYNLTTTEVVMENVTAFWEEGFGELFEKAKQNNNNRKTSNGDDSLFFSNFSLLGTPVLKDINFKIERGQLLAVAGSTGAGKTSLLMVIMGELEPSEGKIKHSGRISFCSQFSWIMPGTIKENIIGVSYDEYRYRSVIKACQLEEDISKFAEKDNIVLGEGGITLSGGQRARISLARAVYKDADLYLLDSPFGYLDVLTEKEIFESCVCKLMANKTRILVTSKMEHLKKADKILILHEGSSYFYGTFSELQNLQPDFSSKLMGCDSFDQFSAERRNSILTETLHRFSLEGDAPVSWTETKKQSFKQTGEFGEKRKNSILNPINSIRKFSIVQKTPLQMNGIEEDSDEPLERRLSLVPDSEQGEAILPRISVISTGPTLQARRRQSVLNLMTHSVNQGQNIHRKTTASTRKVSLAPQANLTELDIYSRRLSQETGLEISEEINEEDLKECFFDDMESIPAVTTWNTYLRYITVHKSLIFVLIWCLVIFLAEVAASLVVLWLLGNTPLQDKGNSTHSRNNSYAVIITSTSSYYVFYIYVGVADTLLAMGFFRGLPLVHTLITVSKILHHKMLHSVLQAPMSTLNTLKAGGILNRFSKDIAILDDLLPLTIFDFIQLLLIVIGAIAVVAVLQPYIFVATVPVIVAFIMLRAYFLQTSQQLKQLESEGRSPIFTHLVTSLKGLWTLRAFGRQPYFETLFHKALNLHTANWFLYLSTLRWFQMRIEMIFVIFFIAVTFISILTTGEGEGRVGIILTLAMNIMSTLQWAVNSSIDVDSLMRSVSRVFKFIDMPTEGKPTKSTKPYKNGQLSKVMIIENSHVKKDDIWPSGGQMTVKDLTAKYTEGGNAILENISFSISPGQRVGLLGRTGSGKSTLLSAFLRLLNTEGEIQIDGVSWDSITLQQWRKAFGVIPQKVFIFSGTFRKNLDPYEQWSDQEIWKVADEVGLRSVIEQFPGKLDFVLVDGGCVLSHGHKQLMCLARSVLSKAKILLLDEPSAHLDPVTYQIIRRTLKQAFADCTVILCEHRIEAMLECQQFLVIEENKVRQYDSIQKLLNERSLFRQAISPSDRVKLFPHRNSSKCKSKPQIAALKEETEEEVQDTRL
Test Description: CFTR cell surface levels using HRP-tagged ΔF508-CFTR expressing CFBE cells, in the presence of a co-corrector
Format: cell-based
Conditions: HRP-tagged ΔF508-CFTR expressing CFBE cells, in the presence of 3 μM co-corrector
Readout Name: % Activation (%)
Answers are plain numbers, in %.

Some compounds with known % Activation results, for comparison:
Cc1nn(-c2ccccc2)c2nc(C(=O)O)cc(-c3ccc(N4CCN(CCC(F)(F)F)CC4)cc3)c12 335.65
CC(C)c1nn(-c2ccccc2)c2nc(C(=O)O)cc(-c3cnc(N4CCOCC4)nc3)c12 256.45
CNC(=O)CN1CCN(c2cc(C(=O)O)nc3c2c(C2CCC2)nn3-c2ccccc2)CC1 259.37

Item: CC(C)c1nn(C2CCCC2)c2nc(C(=O)O)cc(-c3ccc(N4CCOCC4)nc3)c12 | % Activation: 343.4

###

Subject Of Test: ΔF508-CFTR (Homo sapiens, UniProt P13569, DEL508-508)
Construct: host or cells: CFBE41o-, doxycycline-inducible
Test Description: CFTR cell surface levels using HRP-tagged ΔF508-CFTR expressing CFBE cells, in the presence of a co-corrector
Format: cell-based
Conditions: HRP-tagged ΔF508-CFTR expressing CFBE cells, in the presence of 3 μM co-corrector
Readout Name: % Activation (%)
Answers are plain numbers, in %.

Compound	Readout Name	Result Number
O=C(O)c1cc(OCC2CCOCC2)c2c(C3CCC3)nn(-c3ccc(F)cc3)c2n1 [compound 658]	% Activation	345.9
CC(C)c1nn(C2CCCCC2)c2nc(C(=O)O)cc(-c3cnc(N(C)C4CCN(C(=O)OC(C)(C)C)CC4)nc3)c12 [compound 374]	% Activation	297.35
CC(C)(C)OC(=O)N1CCC(Oc2nn(-c3ccccc3)c3nc(C(=O)O)cc(-c4ccc(N5CCC(C#N)CC5)nc4)c23)CC1 [compound 553]	% Activation	419.05

Batch request: % Activation per item, same order as input.
1. Cc1nn(-c2cccc(N3CCOCC3)c2)c2nc(C(=O)O)cc(-c3ccc(N4CCOCC4)cc3)c12 [compound 32]
2. CC(C)c1nn([C@@H]2CCC[C@@H](OCc3ccccc3)C2)c2nc(C(=O)O)cc(-c3ccc(N4CCOCC4)cc3)c12 [compound 163]

Result block:
399.6
554.5

Your task in this section: give % Activation for each listed record.
1. CC(C)c1nn(-c2ccc(F)cc2)c2nc(C(=O)O)cc(N3CCC(C)(N4CCN(C)CC4)CC3)c12 [compound 761]
2. O=C(O)c1cc(N2CCC(N3CCC(F)(F)CC3)CC2)c2c(C3CCC3)nn(-c3ccc(F)cc3)c2n1 [compound 850]

Result block:
1. 284
2. 615.6

###

Subject Of Test: ΔF508-CFTR (Homo sapiens, UniProt P13569, DEL508-508)
Construct: host or cells: CFBE41o-, doxycycline-inducible
Test Description: CFTR cell surface levels using HRP-tagged ΔF508-CFTR expressing CFBE cells, intrinsic corrector capacity
Assay type: cell-based
Conditions: HRP-tagged ΔF508-CFTR expressing CFBE cells; intrinsic corrector capacity (no co-corrector); 33° C., 20 hours
Readout Name: % Activation (%)
Numbers only, in %.

Some solved entries appear below for comparison.
Compound	Units	% Activation
CN(C)C[C@@H](F)C1CCN(c2cc(C(=O)O)nc3c2c(C2CCC2)nn3-c2ccccc2)CC1	%	253.65
O=C(O)c1cc(N2CC[C@H](F)[C@H](O)C2)c2c(C3CCC3)nn(-c3ccccc3)c2n1	%	56.68
CC(C)c1nn(-c2ccc(F)cc2)c2nc(C(=O)O)cc(N3CCC(C)(N4CCCCC4)CC3)c12	%	38.94
CC(C)c1nn(-c2ccc(F)cc2)c2nc(C(=O)O)cc(N3CCC(C(C)(C)O)CC3)c12	%	287.7
CC(C)OC(=O)N1CC[C@@H]2CN(c3cc(C(=O)O)nc4c3c(C3CCC3)nn4-c3ccccc3)CC[C@@H]21 (racemic)	%	262.4
CN1CCC([C@@H](F)COc2cc(C(=O)O)nc3c2c(C2CCC2)nn3-c2ccccc2)CC1	%	144.75

Go through the items and report each one's % Activation.
1. O=C(O)c1cc(N2CC(F)(F)C[C@@H]2CO)c2c(C3CCC3)nn(-c3ccccc3)c2n1
2. O=C(O)c1cc(N2CCC(COCc3ccccc3)CC2)c2c(C3CCC3)nn(-c3ccccc3)c2n1
3. O=C(O)c1cc(N2CCC(N3CCOCC3)CC2)c2c(C3CCC3)nn(-c3ccc(F)c(F)c3)c2n1
4. CC(C)CN1C[C@@H]2CN(c3cc(C(=O)O)nc4c3c(C3CCC3)nn4-c3ccccc3)C[C@@H]2C1
5. CN1CCN(CCCOc2cc(C(=O)O)nc3c2c(C2CCC2)nn3-c2ccccc2)CC1

Result block:
[40.12, 200.4, 270.7, 208.1, 122.2]

Please state, for each entry, its recorded % Activation.
1. O=C(O)c1cc(N2CCC([C@H](F)CO)CC2)c2c(C3CCC3)nn(-c3ccccc3)c2n1
2. CC1(COc2cc(C(=O)O)nc3c2c(C2CCC2)nn3-c2ccccc2)COC1
3. O=C(O)c1cc(N2CCC(CN3CCCC(F)(F)C3)CC2)c2c(C3CCC3)nn(-c3ccccc3)c2n1
4. COC(C)(C)C1CCN(c2cc(C(=O)O)nc3c2c(C2CCC2)nn3-c2ccccc2)CC1

Result block:
1: 240.3; 2: 144.95; 3: 353.9; 4: 292.8

###

For each record, write down the corresponding EC50.
Subject Of Test: ΔF508-CFTR (Homo sapiens, UniProt P13569, DEL508-508)
Construct: host or cells: CFBE41o-, doxycycline-inducible
Test Description: CFTR cell surface levels using HRP-tagged ΔF508-CFTR expressing CFBE cells, in the presence of a co-corrector
Type: cell-based
Conditions: HRP-tagged ΔF508-CFTR expressing CFBE cells, in the presence of 3 μM co-corrector; read-out: EC50
One number for each entry, in nM.

O=C(O)c1cc(OC[C@@H]2CCCO2)c2c(C3CCC3)nn(-c3ccccc3)c2n1 364
CCCCN1CCCN(c2cc(C(=O)O)nc3c2c(C2CCC2)nn3-c2ccccc2)CC1 1350

Summary line: CC(C)c1nn(-c2cc(F)cc(F)c2)c2nc(C(=O)O)cc(-c3ccc(N4CCC(C#N)CC4)cc3)c12 , ΔF508-CFTR (Homo sapiens, UniProt P13569, DEL508-508), reported EC50 = 341

###

Subject Of Test: ΔF508-CFTR (Homo sapiens, UniProt P13569, DEL508-508)
Construct: host or cells: CFBE41o-, doxycycline-inducible
Test Description: CFTR cell surface levels using HRP-tagged ΔF508-CFTR expressing CFBE cells, in the presence of a co-corrector
Assay type: cell-based
Conditions: HRP-tagged ΔF508-CFTR expressing CFBE cells, in the presence of 3 μM co-corrector; read-out: EC50
Readout Name: EC50 (nM)
Give bare numbers, in nM.

Compound	Subject Of Test	Readout Name	Result Number
Cc1nn(-c2ccccc2)c2nc(C(=O)O)cc(N3CC4CC4C3)c12 (stereo not shown)	ΔF508-CFTR (Homo sapiens, UniProt P13569, DEL508-508)	EC50	1990
COc1cc(C(=O)O)nc2c1c(C1CCC1)nn2-c1ccccc1	ΔF508-CFTR (Homo sapiens, UniProt P13569, DEL508-508)	EC50	2880
C[C@H]1C[C@H](c2nn(-c3ccccc3)c3nc(C(=O)O)cc(-c4ccc(N5CCC(C#N)CC5)nc4)c32)C1	ΔF508-CFTR (Homo sapiens, UniProt P13569, DEL508-508)	EC50	87.2
CC(C)c1nn(-c2cccc(N3CCOCC3)c2)c2nc(C(=O)O)cc(-c3ccc(N4CCC(C#N)CC4)nc3)c12	ΔF508-CFTR (Homo sapiens, UniProt P13569, DEL508-508)	EC50	458
CC(C)c1nn(-c2cccc(N3CC(F)C3)c2)c2nc(C(=O)O)cc(-c3ccc(N4CCOCC4)cc3)c12	ΔF508-CFTR (Homo sapiens, UniProt P13569, DEL508-508)	EC50	535

Hi there! I need EC50 for each item below, if you can.
1. N#CC1CN(C2CCN(c3cc(C(=O)O)nc4c3c(C3CCC3)nn4-c3ccc(F)cc3)CC2)C1
2. COCCN1CCN(C2CCN(c3cc(C(=O)O)nc4c3c(C(C)C)nn4-c3ccc(F)cc3)CC2)CC1

Result block:
[286, 549]

###

Subject Of Test: ΔF508-CFTR (Homo sapiens, UniProt P13569, DEL508-508)
Construct: host or cells: CFBE41o-, doxycycline-inducible
Test Description: CFTR cell surface levels using HRP-tagged ΔF508-CFTR expressing CFBE cells, intrinsic corrector capacity
Type: cell-based
Conditions: HRP-tagged ΔF508-CFTR expressing CFBE cells; intrinsic corrector capacity (no co-corrector); 33° C., 20 hours
Would you kindly list % Activation for each of these compounds?

Compound	Readout Name	Result
COCC1CN(c2cc(C(=O)O)nc3c2c(C2CCC2)nn3-c2ccccc2)C1	% Activation	144.95%
O=C(O)c1cc(N2CCN(CCCO)CC2)c2c(C3CCC3)nn(-c3ccccc3)c2n1	% Activation	106.45%
O=C(O)c1cc(N2CC[C@@H](F)C2)c2c(C3CCC3)nn(-c3ccccc3)c2n1	% Activation	120.7%
CC(C1CCN(c2cc(C(=O)O)nc3c2c(C2CCC2)nn3-c2ccccc2)CC1)N1CCOCC1 (stereo not shown)	% Activation	395.1%

Your task in this section: give % Activation for each listed record.
1. O=C(O)c1cc(N2CCN3C[C@@H](F)C[C@H]3C2)c2c(C3CCC3)nn(-c3ccccc3)c2n1
2. CN(C)C[C@H](F)C1CCN(c2cc(C(=O)O)nc3c2c(C2CCC2)nn3-c2ccccc2)CC1

Result block:
["15.59%", "288.4%"]

Give me % Activation for each of these compounds, listed below.
1. O=C(O)c1cc(N2CCC(N3CCOCC3)CC2)c2c(C3CCC3)nn(-c3ccc4c(c3)CC4)c2n1
2. N#CCCN1CCN(c2cc(C(=O)O)nc3c2c(C2CCC2)nn3-c2ccccc2)CC1
3. CC(C)(COc1cc(C(=O)O)nc2c1c(C1CCC1)nn2-c1ccccc1)S(C)(=O)=O
4. COCC1CCN(c2cc(C(=O)O)nc3c2c(C2CCC2)nn3-c2ccnc(OC)c2)CC1
5. O=C(O)c1cc(N2CC[C@H](F)C2)c2c(C3CCC3)nn(-c3ccccc3)c2n1
6. CC(C)(C)OC(=O)NC[C@H]1CCN(c2cc(C(=O)O)nc3c2c(C2CCC2)nn3-c2ccccc2)C1

Result block:
["222.45%", "174.8%", "94.42%", "181.5%", "100.1%", "141.6%"]

Taken from patent US9796711B2.
